Target: Neuronal acetylcholine receptor alpha4beta2 (Rattus norvegicus)
Assay: Inhibition constant against [3H]nicotine binding to alpha4beta2 nicotinic acetylcholine receptor of rat brain membranes
quantity: Ki

[[record]]
molecule = "CN1C2CCC1[C@@H](Cc1ccccc1)C(=O)[C@H]2Cc1ccccc1"
reported = "> 100 µM"

[[record]]
molecule = "CN1C2CCC1[C@@H](Cc1ccccc1)C[C@H]2Cc1ccccc1"
reported = "> 100 µM"

[[record]]
molecule = "CN1C2CCC1[C@H](Cc1ccccc1)CC2 (stereo not given in full)"
reported = "> 6.57 µM"

[[record]]
molecule = "COc1ccc(CC2=C[C@H](Cc3ccc(OC)cc3)C3CCC2N3C)cc1 (stereo not given in full)"
reported = "> 100 µM"

[[record]]
molecule = "COc1ccc(C[C@@H]2C[C@H](Cc3ccc(OC)cc3)C3CCC2N3C)cc1"
reported = "> 100 µM"

[[record]]
molecule = "CN1C2CCC1[C@@H](Cc1ccc(F)cc1)C=C2Cc1ccc(F)cc1 (stereo not given in full)"
reported = "> 100 µM"

[[record]]
molecule = "CN1C2CCC1[C@@H](Cc1ccc(F)cc1)C[C@H]2Cc1ccc(F)cc1"
reported = "> 100 µM"

[[record]]
molecule = "CN1C2CCC1[C@@H](Cc1ccccc1)C(O)[C@H]2Cc1ccccc1 (stereo in doubt; 7a)"
reported = "> 100 µM"

[[record]]
molecule = "CN1C2CCC1[C@@H](CCCc1ccccc1)C[C@H]2CCCc1ccccc1"
reported = "> 100 µM"

[[record]]
molecule = "CN1C2CC=C(Cc3ccccc3)C1CC2 (stereo not given)"
reported = "1.84 µM"


* * *

Target: Neuronal acetylcholine receptor alpha7 (Rattus norvegicus)
Test: Inhibition constant against [3H]methyllycaconitine binding to alpha7 nicotinic acetylcholine receptor of rat brain membranes
quantity: Ki

[[record]]
molecule = "CN1C2CCC1[C@@H](CCCc1ccccc1)C[C@H]2CCCc1ccccc1"
subject_of_test = "Neuronal acetylcholine receptor alpha7 (Rattus norvegicus)"
reported = "> 100 µM"

[[record]]
molecule = "CN1C2CCC1[C@@H](Cc1ccccc1)C(O)[C@H]2Cc1ccccc1 (stereo in doubt; 7a)"
subject_of_test = "Neuronal acetylcholine receptor alpha7 (Rattus norvegicus)"
reported = "> 100 µM"

[[record]]
molecule = "CN1C2CCC1[C@@H](Cc1ccc(F)cc1)C=C2Cc1ccc(F)cc1 (stereo partly drawn)"
subject_of_test = "Neuronal acetylcholine receptor alpha7 (Rattus norvegicus)"
reported = "> 100 µM"

